Provenance of the data: patent US20070105771A1

target: T1, human CD26-derived 13 mer peptide 118 (human); assay: peptide microarray
T1 peptide: ATSIQITAPASML
Reported Endpoint: Mean Signal Value

INSERT INTO measurements (binder, test_value) VALUES
  ('rhuMAb 412 (antibody, human IgG1, V domains shown, X385 VH and X380 VL with human IgG1 and human kappa constant regions; also called X412) VH: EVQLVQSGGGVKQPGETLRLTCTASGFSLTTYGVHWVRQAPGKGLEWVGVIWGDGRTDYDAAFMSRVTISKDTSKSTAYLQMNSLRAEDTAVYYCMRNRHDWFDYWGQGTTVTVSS VL: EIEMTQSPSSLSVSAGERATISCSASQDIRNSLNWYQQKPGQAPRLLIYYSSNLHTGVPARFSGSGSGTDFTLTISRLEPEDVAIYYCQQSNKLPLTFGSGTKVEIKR', 0);
